- system: human PDGFRβ (Homo sapiens (Human))
- Sequence (P09619 561-1106): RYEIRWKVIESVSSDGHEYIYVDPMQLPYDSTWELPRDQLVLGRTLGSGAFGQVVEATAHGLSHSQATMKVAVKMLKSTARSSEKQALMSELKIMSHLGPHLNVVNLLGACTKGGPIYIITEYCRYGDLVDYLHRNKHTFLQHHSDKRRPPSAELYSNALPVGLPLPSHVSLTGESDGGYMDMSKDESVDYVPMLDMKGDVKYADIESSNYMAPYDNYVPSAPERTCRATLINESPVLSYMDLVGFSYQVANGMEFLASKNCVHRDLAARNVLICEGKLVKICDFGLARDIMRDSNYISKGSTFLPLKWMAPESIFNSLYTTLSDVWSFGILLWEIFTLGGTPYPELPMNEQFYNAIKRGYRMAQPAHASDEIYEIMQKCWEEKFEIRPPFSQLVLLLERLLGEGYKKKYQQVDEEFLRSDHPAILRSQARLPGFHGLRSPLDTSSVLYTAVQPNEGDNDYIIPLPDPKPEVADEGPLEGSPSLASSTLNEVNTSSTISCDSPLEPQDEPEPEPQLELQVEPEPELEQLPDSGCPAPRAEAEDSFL
- protocolSummary: PDGFRβ kinase assay (PDGFRβ-HTRF)
- Type: biochemical
- conditionNotes: 10 μM ATP; some mean values from multiple determinations
assayMetric: IC50 (nM)

# example entries with known answers
Record Cc1ccc(O)cc1Nc1ccnc2c1C(=O)Nc1cc(CNCC(C)Cn3cccn3)ccc1N2 (stereo not shown) [Example 114] , field IC50: 1.83

// IC50 lookup, compound = CCC(C)CNCc1ccc2c(c1)NC(=O)c1c(Nc3cc(O)ccc3C)ccnc1N2 (stereo not shown) [Example 153] , result: 3.61

In plain terms, Cc1ccc(O)cc1Nc1ccnc2c1C(=O)Nc1cc(CNCCC(F)(F)F)ccc1N2 [Example 115] has a documented IC50 of 3.93

Looking up Cc1ccc(O)cc1Nc1ccnc2c1C(=O)Nc1cc(CNCCN3CCOCC3)ccc1N2 [Example 18] , I found its IC50 recorded as 5.19

IC50 reported for this compound Cc1ccc(O)cc1Nc1ccnc2c1C(=O)Nc1cc(CNCCO)ccc1N2 [Example 24] : 4.74

Note to self: IC50 recorded for Cc1cc(F)c(Nc2ccnc3c2C(=O)Nc2cc(CN4CCCC(O)(c5ccccc5)C4)ccc2N3)cc1O (racemic) [Example 73] was 1.98

Value of measured IC50 for the entry Cc1ccc(O)cc1Nc1ccnc2c1C(=O)Nc1cc(CNCC3CNC(=O)C3)ccc1N2 (stereo not shown) [Example 130] : 2.31

Entry Cc1cc(F)c(Nc2ccnc3c2C(=O)Nc2cc(CN(C)CCN)ccc2N3)cc1O [Example 209] — recorded IC50 = 0.739

[a] CCN(Cc1ccc2c(c1)NC(=O)c1c(Nc3cc(O)c(C)cc3F)ccnc1N2)CC(C)O (single isomer, unassigned; ent-8) [Example 205]
[b] N#Cc1ccc2c(c1)NC(=O)c1c(Nc3cc(O)ccc3F)ccnc1N2 [Example 13]
[c] CCCc1ccc(Nc2ccnc3c2C(=O)Nc2cc(C#N)ccc2N3)cc1O [Example 2]
[d] Cc1cc(F)c(Nc2ccnc3c2C(=O)Nc2cc(C(=O)N4CCC(CCO)C4)ccc2N3)cc1O (racemic) [Example 181]
[e] CCN(CC)Cc1ccc2c(c1)NC(=O)c1c(Nc3cc(O)c(C)cc3F)ccnc1N2 [Example 28]
query: Could you please sort these 5 entries by IC50 from high to low? Labels, ranked as asked.
result: c, b, d, a, e

[A] Cc1ccc(O)cc1Nc1ccnc2c1C(=O)Nc1cc(CNCC3CCC(=O)N3C)ccc1N2 (stereo not shown) [Example 137]
[B] N#Cc1ccc2c(c1)NC(=O)c1c(Nc3ccc(NS(=O)(=O)c4ccccc4)c(O)c3)ccnc1N2 [Example 6]
query: # returns the entry with the larger IC50; inputs A and B Please respond with the label that marks your chosen entry.
result: B
(B: 689 nM, A: 1.68 nM)
